Source listed as PubChem BioAssay (NCI).

- assay-method-text: NCI Yeast Anticancer Drug Screen. Data for the cln2 rad14 strain (AID 165);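 note: 0% = growth equal to vehicle treated cultures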
- condition-set: S. cerevisiae cln2 rad14 strain, at 50.0 µM (retest, dose inferred, filed as 5.0)
The panel holds about 79,000 compounds, 15% with a hit somewhere; the sample as a whole holds those more often. Activity calls are given as the source filed them. Cut-off read from the data, not from the text of the source: active = growth inhibition above about 70%; inactive = the rest.
// allowed return values: yes (1) (active), no (0) (inactive)

Exam item: Tell me the assay call for C[CH2][Sn]([CH2]C)([CH2]C)[O]C(=O)CO please.
Marked response: yes (1)

Exam item: Tell me the assay call for CC[CH2][Sn]([Br])([Br])[CH2]CC please.
Marked response: yes (1)

Exam item: Tell me the assay call for COC12C(COC(C)=O)C3=C(C(=O)C(C)=C(N4CCCCC4)C3=O)N1CC1NC12 (centres undefined) please.
Marked response: yes (1)

Exam item: Tell me the assay call for O=c1ssc(Cl)c1Cl please.
Marked response: yes (1)

Exam item: Tell me the assay call for c1ccc(CCNCc2ccccc2)cc1 please.
Marked response: no (0)

Exam item: Tell me the assay call for CCCCC1CCCCCCc2[nH]c(/C=C3\N=C(c4ccc[nH]4)C=C3OC)cc21 (centres undefined) please.
Marked response: yes (1)

Exam item: Tell me the assay call for CCCCN(CC)CC(C(C)=O)c1c(O)c2ccccc2oc1=O (centres undefined) please.
Marked response: no (0)

Exam item: Tell me the assay call for Cc1cccc2cc3ccccc3c[n+]12 please.
Marked response: yes (1)

Exam item: Tell me the assay call for O=[N+]([O-])/C=C/c1ccccc1 please.
Marked response: yes (1)

Exam item: Tell me the assay call for O=C(COc1ccc(Cl)c(Cl)c1)N(Cc1ccccc1)Cc1ccc[n+](Cc2ccc(S(=O)(=O)F)cc2)c1 please.
Marked response: yes (1)

Exam item: Tell me the assay call for CNC(Cc1ccccc1)c1ccc(OC)c(OC)c1 (centres undefined) please.
Marked response: no (0)

Exam item: Tell me the assay call for CC1CCC2(NC1)OC1CC3C4CCC5CC(OC6OC(CO)C(OC7OC(CO)C(O)C(OC8OCC(O)C(O)C8O)C7OC7OC(CO)C(O)C(O)C7O)C(O)C6O)CCC5(C)C4CCC3(C)C1C2C (centres undefined) please.
Marked response: no (0)

Exam item: Tell me the assay call for CCCCCCCCCCCCN1CC1 please.
Marked response: no (0)

Exam item: Tell me the assay call for CCC(C)(c1ccc(O)cc1)c1ccc(O)cc1 please.
Marked response: yes (1)

Exam item: Tell me the assay call for CCCOc1ccc(/C=C/[N+](=O)[O-])cc1N please.
Marked response: yes (1)

Exam item: Tell me the assay call for CC[C@@]1(O)C(=O)OCc2c1cc1n(c2=O)Cc2cc3c(NC(=O)CN)cccc3nc2-1 please.
Marked response: no (0)

Exam item: Tell me the assay call for CCCN(CCC)c1c([N+](=O)[O-])cc(S(N)(=O)=O)cc1[N+](=O)[O-] please.
Marked response: yes (1)

Exam item: Tell me the assay call for CC#C[P+](c1ccccc1)(c1ccccc1)c1ccccc1 please.
Marked response: yes (1)

Exam item: Tell me the assay call for CCC1(O)C(=O)OCc2c1cc1n(c2=O)Cc2cc3ccccc3nc2-1 (centres undefined) please.
Marked response: no (0)

Exam item: Tell me the assay call for CCCCCCC1CCC2CCCC(C)N12 (centres undefined) please.
Marked response: no (0)

Exam item: Tell me the assay call for CS(=O)(=O)OCCN(CCOS(C)(=O)=O)c1ccc(C=O)cc1 please.
Marked response: yes (1)

Exam item: Tell me the assay call for O=c1oc2ccccc2c(O)c1C(c1ccc2c(c1)Cc1ccccc1-2)c1c(O)c2ccccc2oc1=O please.
Marked response: yes (1)

Exam item: Tell me the assay call for [O-][n+]1c2cccc(O)c2[n+]([O-])c2cccc(O)c21 please.
Marked response: yes (1)

Exam item: Tell me the assay call for CN1CN(c2ccccc2)C2(CCN(C3Nc4ccccc4O3)CC2)C1=O (centres undefined) please.
Marked response: no (0)

Exam item: Tell me the assay call for CCc1cccc(C(C)C)c1NC1=C([n+]2ccc(C)cc2)C(=O)c2ccccc2C1=O please.
Marked response: no (0)

Exam item: Tell me the assay call for CC(C)COP(=O)(O)OCC(C)C.[Al] please.
Marked response: no (0)

Exam item: Tell me the assay call for O=C(O)c1ccc(NP(=O)(O)Oc2ccccc2)cc1 (tested in a mixture with another compound) please.
Marked response: no (0)

Exam item: Tell me the assay call for C1CC[N-]CC1.C1CC[N-]CC1.N#CO.[Ag] please.
Marked response: yes (1)

Exam item: Tell me the assay call for CCCCC1C(=O)NC(=S)N(c2ccccc2)C1=O (centres undefined) please.
Marked response: no (0)

Exam item: Tell me the assay call for c1ccc2c(c1)c1cccc3c4c5ccccc5c5cccc(c2c13)c54 please.
Marked response: no (0)

Exam item: Tell me the assay call for O=C(COc1ccc(Cl)cc1Cl)NO please.
Marked response: no (0)

Exam item: Tell me the assay call for O=C1C=CC(=O)N1c1cccc2ccccc12 (tested in a mixture with another compound) please.
Marked response: no (0)

Exam item: Tell me the assay call for CS(=O)(=O)[O-].CS(=O)(=O)[O-].NC1CCCCC1N.[Pt+4] (centres undefined) please.
Marked response: yes (1)

Exam item: Tell me the assay call for [Cl][Sn]([Cl])([c]1ccccc1)[c]1ccccc1.c1ccncc1.c1ccncc1 please.
Marked response: yes (1)

Exam item: Tell me the assay call for CN(C)c1ccc(C2N(Cc3ccc(N(CCCl)CCCl)cc3Cl)CCCN2Cc2ccc(N(CCCl)CCCl)cc2Cl)cc1 please.
Marked response: yes (1)

Exam item: Tell me the assay call for Oc1ccc(Cl)cc1Cc1ccccc1 please.
Marked response: yes (1)

Exam item: Tell me the assay call for C[C@]12CC[C@H]3[C@@H](CCC4=CC(=O)CC[C@@H]43)[C@@H]1CC[C@@H]2OC1(O)C(=O)c2ccccc2C1=O please.
Marked response: no (0)

Exam item: Tell me the assay call for [C-]#[O+].[C-]#[O+].[Ir].[O-]c1ccc2ccccc2c1N=Nc1ccccc1 please.
Marked response: no (0)

Exam item: Tell me the assay call for CC(=O)OC1CCC2(C)C(CCC3C4=CCC(C5=CC(=O)OC5)C4(C)CCC32)C1 (centres undefined) please.
Marked response: no (0)

Exam item: Tell me the assay call for Cc1ccc2ccccc2c1NC1=NCCO1 please.
Marked response: no (0)

Exam item: Tell me the assay call for C=CCC[CH2][Sn]([c]1ccccc1)([c]1ccccc1)[c]1ccccc1 please.
Marked response: yes (1)

Exam item: Tell me the assay call for O/N=C/c1ccc2c(c1)OCO2 please.
Marked response: yes (1)

Exam item: Tell me the assay call for ClCCN(CCCl)c1ccc(C=NCCCCN=Cc2ccc(N(CCCl)CCCl)cc2)cc1 please.
Marked response: yes (1)

Exam item: Tell me the assay call for CCC1(O)C(=O)OCc2c1cc1n(c2=O)Cc2cc3cc([N+](=O)[O-])ccc3nc2-1 (centres undefined) please.
Marked response: no (0)

* * *

Kindly supply the reported growth inhibition values for the records listed here.
- assay-method-text: NCI Yeast Anticancer Drug Screen. Data for the sgs1 mgt1 strain (AID 161);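 note: 0% = growth of cultures given vehicle only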
- condition-set: S. cerevisiae sgs1 mgt1 strain, at 50.0 µM (retest, dose inferred, filed as 5.0), hits give high values
About 79,000 compounds went through this panel and 15% of them were active in at least one assay; those are over-represented in the sample as a whole.
Answer format: numeric, % implied, no suffix.

Exam item: Quick one: growth inhibition of Cc1cc(-c2ccccc2)cc(C)[n+]1[O-] ?
Marked response: 12

Exam item: Quick one: growth inhibition of C[N-]c1nnnn1C.[Au+].c1ccc([PH+](c2ccccc2)c2ccccc2)cc1 ?
Marked response: 97

Exam item: Quick one: growth inhibition of Cc1ccc(N=P(c2ccccc2)(c2ccccc2)c2ccccc2)cc1.[I][Hg][I] ?
Marked response: 99

Exam item: Quick one: growth inhibition of CN(Cc1ccccc1)CC(O)c1ccc(Cl)cc1 (configuration not stated) ?
Marked response: 44

Exam item: Quick one: growth inhibition of Cc1ccc([PH+](c2ccc(C)cc2)c2ccc(C)cc2)cc1.Cc1ccc([PH+](c2ccc(C)cc2)c2ccc(C)cc2)cc1.[Cl][Hg][Cl] ?
Marked response: 95

Exam item: Quick one: growth inhibition of CCC[CH2][Sn]1([CH2]CCC)[O]CC(CN2CCCC2)[O]1 (configuration not stated) ?
Marked response: 97

Exam item: Quick one: growth inhibition of CN(C)c1ccc(N=Cc2c([O-])ccc3ccccc23)cc1.[C-]#[O+].[C-]#[O+].[Ir] ?
Marked response: -17

Exam item: Quick one: growth inhibition of CCN1/C(=C\c2ccc3cc(C)ccc3[n+]2CC)[Se]c2ccccc21 ?
Marked response: 99

Exam item: Quick one: growth inhibition of CC(=O)C1CCC2C3CCC4=CC(=[N+]5CCCCC5)CCC4(C)C3CCC12C (configuration not stated) ?
Marked response: 95

Exam item: Quick one: growth inhibition of C[C@]12CCC3[C@@H](CC[C@@H]4c5nonc5CC[C@]34C)C1CCC2=O (some centres not stated) ?
Marked response: 69

Exam item: Quick one: growth inhibition of O=C1C2CC(Cl)C(SSC3CC4C(=O)N(SC(Cl)(Cl)C(Cl)Cl)C(=O)C4CC3Cl)CC2C(=O)N1SC(Cl)(Cl)C(Cl)Cl (configuration not stated) ?
Marked response: 95

Exam item: Quick one: growth inhibition of CCCCCCCCCCCCNCCc1ccccc1 ?
Marked response: 98

Exam item: Quick one: growth inhibition of Br[C](Br)(Br)[Hg][c]1ccccc1 ?
Marked response: 99

Exam item: Quick one: growth inhibition of CC(C)=[CH][Sb]([Br])([CH]=C(C)C)([CH]=C(C)C)[CH]=C(C)C ?
Marked response: 14

Exam item: Quick one: growth inhibition of NC(Cc1c[nH]c2ccccc12)P(=O)(O)O (configuration not stated) ?
Marked response: 29

Exam item: Quick one: growth inhibition of CC(NCCN(C)C)C1CC2CCCCN2C1 (configuration not stated) ?
Marked response: -28

Exam item: Quick one: growth inhibition of NC(C(=O)O)c1ccccc1Cl (configuration not stated) ?
Marked response: -57

Exam item: Quick one: growth inhibition of O=C(O)C1C2CCC(C2)C1c1ccccc1 (configuration not stated) ?
Marked response: 8

Exam item: Quick one: growth inhibition of Nc1ccc2cc(Br)ccc2c1 ?
Marked response: 11

Exam item: Quick one: growth inhibition of c1cc2c(cc1C1OC[C@H]3[C@@H](c4ccc5c(c4)OCO5)OC[C@@H]13)OCO2 (some centres not stated) ?
Marked response: 20

Exam item: Quick one: growth inhibition of CCOP(=O)(OCC)/C(C#N)=C/c1cccc(C)c1 ?
Marked response: 42

Exam item: Quick one: growth inhibition of CCNC(C)(C)C(SS)c1ccc(Br)cc1 (configuration not stated) ?
Marked response: 18

Exam item: Quick one: growth inhibition of S=P(Nc1ccccc1)(Nc1ccccc1)Oc1ccccc1 ?
Marked response: 98

Exam item: Quick one: growth inhibition of CCCCCCCCCCCCCCCCCC[N+](C)(C)C ?
Marked response: 95

Exam item: Quick one: growth inhibition of N#CC(Nc1c(N)nc(-c2ccccc2)nc1N)c1ccc(N(CCCl)CCCl)cc1 (configuration not stated) ?
Marked response: 43

Exam item: Quick one: growth inhibition of C/C(=N\N=C(/[Se])N1CC2CCC(CC2)C1)c1ccccn1 ?
Marked response: 73

Exam item: Quick one: growth inhibition of CCC(C)(C)c1ccc(OP(=S)(S)Oc2ccc(C(C)(C)CC)cc2)cc1 ?
Marked response: 95

Exam item: Quick one: growth inhibition of O=C1OC2C(O1)C1(Cl)C(Cl)=C(Cl)C2(Cl)C1(Cl)Cl (configuration not stated) ?
Marked response: 74

Exam item: Quick one: growth inhibition of CCC[CH2][Sn]1([CH2]CCC)[O]C(=O)c2cc(C)ccc2[O]1 ?
Marked response: 98

Exam item: Quick one: growth inhibition of O=C(Cl)c1ccccn1 ?
Marked response: 99

Exam item: Quick one: growth inhibition of O=C(O)C1C2c3ccccc3C(c3ccccc32)C1C(=O)O (configuration not stated) ?
Marked response: 16

Exam item: Quick one: growth inhibition of COc1cc(N(CCCl)CCCl)ccc1C=Nc1cccc(Cl)c1 ?
Marked response: 7

Exam item: Quick one: growth inhibition of Br[Se]c1ccccn1 ?
Marked response: 99

Exam item: Quick one: growth inhibition of COC(=O)C(F)C(Br)C(=O)OC (configuration not stated) ?
Marked response: 12

Exam item: Quick one: growth inhibition of N#C[S-].[Nd+3].c1ccc(-c2ccccn2)nc1.c1ccc(-c2ccccn2)nc1.c1ccc(-c2ccccn2)nc1 ?
Marked response: 99

Exam item: Quick one: growth inhibition of COC(=O)C1=C(O)C(C(=O)OC)[C@]2(O)[C@@H](C(=O)OC)[C@H]1C[C@@H](c1ccccc1)[C@@H]2C(=O)OC (some centres not stated) ?
Marked response: 97

Exam item: Quick one: growth inhibition of CCOC(=O)C1C2c3ccccc3C(c3ccccc32)C1C(=O)OCC (configuration not stated) ?
Marked response: 89

Exam item: Quick one: growth inhibition of O=C(O)CCCOc1cc(Cl)c(Cl)cc1Cl ?
Marked response: 18

Exam item: Quick one: growth inhibition of Fc1ccc(NP(=S)(Nc2ccc(F)cc2F)Nc2ccc(F)cc2F)c(F)c1 ?
Marked response: 99

Exam item: Quick one: growth inhibition of O=[As]c1ccc(Cl)cc1Cl (configuration not stated) ?
Marked response: 100

Exam item: Quick one: growth inhibition of CC(C)[O-].CC(C)[O-].[O-]c1cccc2cccnc12.[O-]c1cccc2cccnc12.[Ti+4] ?
Marked response: 4

Exam item: Quick one: growth inhibition of Cc1c(N)nc([C@H](CC(N)=O)NC[C@H](N)C(N)=O)nc1C(=O)N[C@H](C(=O)N[C@H](C)[C@@H](O)CC(=O)N[C@H](C(=O)NC(O[C@@H]1O[C@@H](C)[C@@H](N)[C@@H](O)[C@H]1O)C(O)c1nc(-c2nc(C(=O)NCCCCN)cs2)cs1)[C@@H](C)O)[C@@H](O[C@@H]1O[C@@H](CO)[C@@H](O)[C@H](O)[C@@H]1O[C@H]1O[C@H](CO)[C@@H](O)[C@H](OC(N)=O)[C@@H]1O)c1c[nH]cn1 (some centres not stated) ?
Marked response: 98
